- Test system: Pellicularia filamentosa (f. sp. sasiki)
- ASSAY_REMARKS: whole plant or invertebrate
- Assay type: in vivo
- ASSAY_SETUP: 120 h; read-out: % Control RSB
The following compounds are listed with their measured pest or weed control at 200 ppm values.
Hi! Could you send only the number? It should be in %, unit omitted.

Answered examples (2):
{"columns": ["COMPOUND", "TARGET", "pest or weed control at 200 ppm / %"],
 "data": [
  ["CCCCCCCCNC(=O)/C=C\\SC(=O)/C=C/c1ccco1", "Pellicularia filamentosa (f. sp. sasiki)", 0],
  ["CC(=O)S/C=C\\C(=O)NC1CCCCCCCCCCC1", "Pellicularia filamentosa (f. sp. sasiki)", 0]
]}

**Q:** Please report the recorded pest or weed control at 200 ppm for CCCCCC#CC(=O)S/C=C\C(=O)NCCCCCCCC .
**A:** 0

**Q:** Please report the recorded pest or weed control at 200 ppm for CCCCCCCCNC(=O)/C=C\SC(=O)C1CCc2ccccc2C1 (stereo not shown) .
**A:** 0

**Q:** Please report the recorded pest or weed control at 200 ppm for C=CCC(=O)S/C=C\C(=O)NCCCCCCCC .
**A:** 0

**Q:** Please report the recorded pest or weed control at 200 ppm for CCCCCCCCNC(=O)/C=C\SC(=O)c1ccc(OCCCCCCC)cc1 .
**A:** 80

**Q:** Please report the recorded pest or weed control at 200 ppm for CCCCCCCCNC(=O)/C=C\SC(=O)c1ccc2ccccc2n1 .
**A:** 0

----------
- Test system: Puccinia recondita (f. sp. tritici Races PKB and PLD)
- ASSAY_REMARKS: whole plant or invertebrate
- Assay type: in vivo
- ASSAY_SETUP: in vivo
The following compounds are listed with their measured % Control WLR values.
Hi! Could you send only the number? It should be in % Control, unit omitted.

Answered examples (3):
{"columns": ["COMPOUND", "% Control WLR / % Control"],
 "data": [
  ["CCCCCCCCNC(=O)C=CSC(CO)COc1ccccc1 (stereo not shown)", 0],
  ["CCCCCCCCNC(=O)C=CSC(CO)COc1ccc(OC)cc1 (stereo not shown)", 0],
  ["CCCCCCCCNC(=O)/C=C\\SC(=O)CCc1ccccc1", 0]
]}

Now look at this one.
**Q:** Please report the recorded % Control WLR for CCCCCCCCNC(=O)/C=C\SCC(O)c1ccco1 (stereo not shown) .
**A:** 0

----------
- System: Puccinia graminis (f. sp. tritici Race 15B-2)
- ASSAY_REMARKS: whole plant or invertebrate
- Type: in vivo
- ASSAY_SETUP: Puccinia graminis, 336 h, read-out: % Control WSR
The following molecules are listed with their measured pest or weed control at 200 ppm values.
A complete answer gives the number and then names the unit.

{"columns": ["MOLECULE", "pest or weed control at 200 ppm"],
 "data": [
  ["CCCCCCCCNC(=O)/C=C\\SC(=O)CCC(=O)OCC", "90%"]
]}

**Q:** Please report the recorded pest or weed control at 200 ppm for CCCCCCCCNC(=O)/C=C\SC(=O)c1ccco1 [Compound 15, N-octyl-cis-3-(2-furoylthio)acrylamide] .
**A:** 90%

**Q:** Please report the recorded pest or weed control at 200 ppm for CCCCCCCCNC(=O)/C=C\SC(=O)C1CCCCC1 .
**A:** 50%

**Q:** Please report the recorded pest or weed control at 200 ppm for CCCCCCCCNC(=O)/C=C\SC(=O)CCCc1ccccc1 .
**A:** 75%

**Q:** Please report the recorded pest or weed control at 200 ppm for CCCCCCCCNC(=O)/C=C\SC(=O)Cc1ccccc1 .
**A:** 90%

**Q:** Please report the recorded pest or weed control at 200 ppm for CCCCCCCCNC(=O)/C=C\SC(=O)CCC(=O)OC .
**A:** 90%

**Q:** Please report the recorded pest or weed control at 200 ppm for CCCCCCCCNC(=O)/C=C\SC(=O)c1ccccc1Br .
**A:** 75%

**Q:** Please report the recorded pest or weed control at 200 ppm for CCCCCCCCNC(=O)/C=C\SC(=O)c1sccc1C .
**A:** 75%
